- EXPERIMENT DESCRIPTION: Selectivity index, ratio of IC50 for rat L6 cells to IC50 for Trypanosoma brucei rhodesiense STIB900
- Assay type: toxicity, cell-based
- MEASUREMENT CONDITIONS: read-out: Ratio IC50
The label depends only on selectivity ratio: Yes if it is at least 900, No if it is smaller.

Test whether the compound Cl.Cl.N=C(N)c1ccc(-c2cc(-c3ccc(C(=N)N)cn3)on2)cc1 records selectivity ratio of 900 or higher. Yes

Test whether the compound N=C(N)c1cccc(-c2cc(-c3cc(C(=N)N)ccn3)on2)c1 records selectivity ratio of 900 or higher. Yes

Test whether the compound Cl.Cl.N=C(N)c1ccc(-c2cc(-c3ccc(C(=N)N)nc3)on2)cn1 records selectivity ratio of 900 or higher. No

Test whether the compound Cl.Cl.N=C(N)c1cccc(-c2cc(-c3ccc(C(=N)N)nc3)no2)c1 records selectivity ratio of 900 or higher. Yes

Test whether the compound Cl.Cl.N=C(N)c1ccc(-c2cc(-c3cccc(C(=N)N)c3)on2)nc1 records selectivity ratio of 900 or higher. Yes

Test whether the compound N=C(N)c1cccc(-c2cc(-c3cc(C(=N)N)ccn3)no2)c1 records selectivity ratio of 900 or higher. No

Test whether the compound Cl.Cl.N=C(N)c1ccc(-c2cc(-c3cc(C(=N)N)ccn3)on2)cc1 records selectivity ratio of 900 or higher. Yes

Test whether the compound Cl.Cl.N=C(N)c1ccc(-c2cc(-c3ccc(C(=N)N)nc3)no2)cc1 records selectivity ratio of 900 or higher. No

Test whether the compound Cl.Cl.N=C(N)c1cccc(-c2cc(-c3cncc(C(=N)N)c3)on2)c1 records selectivity ratio of 900 or higher. Yes

* * *

Give measured MSD for each item. Keep answers brief.
- Test system: Trypanosoma brucei rhodesiense
- EXPERIMENT DESCRIPTION: Trypanocidal activity against bloodstream form of Trypanosoma brucei rhodesiense STIB900 infected in NMRI mouse assessed as mean survival days at 5 mg/kg, ip qd administered for 4 days
- Format: functional
- MEASUREMENT CONDITIONS: route intraperitoneal

Which MSD reading was recorded for the compound Cl.Cl.N=C(N)c1ccc(-c2cc(-c3cc(C(=N)N)ccc3[N+](=O)[O-])no2)cc1 ? 29.75 days

Which MSD reading was recorded for the compound COc1ccc(C(=N)N)cc1-c1cc(-c2cc(C(=N)N)ccc2OC)on1.Cl.Cl ? >50 days

Which MSD reading was recorded for the compound Cl.Cl.N=C(N)c1ccc(-c2cc(-c3ccc(C(=N)N)cc3)on2)cc1 ? >60 days

Which MSD reading was recorded for the compound Cl.N=C(N)c1cncc(-c2cc(-c3ccc(C(=N)N)nc3)no2)c1 ? >60 days

Which MSD reading was recorded for the compound COc1cc(C(=N)N)ccc1-c1cc(-c2cc(C(=N)N)ccc2OC)on1.Cl.Cl ? >60 days

Which MSD reading was recorded for the compound COc1ccc(C(=N)N)cc1-c1cc(-c2ccc(C(=N)N)cc2[N+](=O)[O-])no1.Cl.Cl ? >60 days

Which MSD reading was recorded for the compound COc1cc(C(=N)N)ccc1-c1cc(-c2ccc(C(=N)N)cc2)no1.Cl.Cl ? >48.75 days

Which MSD reading was recorded for the compound COc1cc(C(=N)N)ccc1-c1cc(-c2ccc(C(=N)N)cc2OC)on1.Cl.Cl ? >60 days

Which MSD reading was recorded for the compound Cl.Cl.Cl.N=C(N)c1cccc(-c2cc(-c3cc(C(=N)N)ccc3Cl)on2)c1 ? 25 days

Which MSD reading was recorded for the compound Cl.Cl.N=C(N)c1ccc(-c2cc(-c3ccc(C(=N)N)cn3)no2)cc1 ? >52.75 days

Which MSD reading was recorded for the compound Cl.Cl.N=C(N)c1cccc(-c2cc(-c3cccc(C(=N)N)c3)on2)c1 ? 21.75 days

Which MSD reading was recorded for the compound Cl.Cl.N=C(N)c1cccc(-c2cc(-c3ccc(C(=N)N)nc3)on2)c1 ? >41.75 days

Which MSD reading was recorded for the compound Cl.Cl.Cl.N=C(N)c1ccc(-c2cc(-c3ccc(C(=N)N)cc3Cl)no2)cc1 ? 28 days

Which MSD reading was recorded for the compound Cl.Cl.N=C(N)c1ccc(-c2cc(-c3cccc(C(=N)N)c3)on2)nc1 ? >60 days

Which MSD reading was recorded for the compound COc1cc(C(=N)N)ccc1-c1cc(-c2ccc(C(=N)N)cc2)on1.Cl.Cl ? >60 days

Which MSD reading was recorded for the compound Cl.Cl.N=C(N)c1ccc(-c2cc(-c3ccc(C(=N)N)cc3[N+](=O)[O-])no2)cc1 ? >51.25 days

Which MSD reading was recorded for the compound Cl.Cl.Cl.N=C(N)c1cccc(-c2cc(-c3ccc(C(=N)N)cc3Cl)no2)c1 ? 24 days

Which MSD reading was recorded for the compound Cl.Cl.N=C(N)c1ccc(-c2cc(-c3cc(C(=N)N)ccn3)on2)cc1 ? 28.5 days

Which MSD reading was recorded for the compound COc1ccc(C(=N)N)cc1-c1cc(-c2ccc(C(=N)N)cc2)on1.Cl.Cl ? >60 days

Which MSD reading was recorded for the compound Cl.Cl.N=C(N)c1ccc(-c2cc(-c3cccc(C(=N)N)c3)on2)cc1 ? >49.25 days
